- Test system: Ebola virus
- procedure_details: microbe, parasite or virus in culture
- Type: cell-based, Ebolavirus (EBOV)
- experimental_conditions: Zaire ebolavirus, Vero, read-out: Max Effect
Counter-ions that a name gives are not always drawn.
# note: exactly 50% is not below, so it is n; use y for Emax strictly under it

O=C(O)Cc1cc(I)c(Oc2ccc(O)c(I)c2)c(I)c1 = y
C#C[C@]1(O)CC[C@H]2[C@@H]3CCC4=Cc5oncc5C[C@]4(C)[C@H]3CC[C@@]21C = n
O=C1Nc2ccc(Cl)cc2[C@@](C#CC2CC2)(C(F)(F)F)O1 = n
Fc1ccc([C@@H]2CCNC[C@H]2COc2ccc3c(c2)OCO3)cc1 [Paroxetine Hydrochloride Hemihydrate] = n
Clc1ccc(C(Cn2ccnc2)OCc2ccsc2Cl)c(Cl)c1 (centres unmarked) = n
COc1cc2c(cc1OC)[C@@H]1C(=O)c3ccc4c(c3O[C@@H]1CO2)C=CC(C)(C)O4 = y
Fc1ccc(C(c2ccc(F)cc2)N2CCN(C/C=C/c3ccccc3)CC2)cc1 [Flunarizine Hydrochloride] = y
C#C[C@]1(O)CC[C@H]2[C@@H]3[C@H](C)CC4=C(CCC(=O)C4)[C@H]3CC[C@@]21C = n
CC1=C(/C=C/C(C)=C/C=C/C(C)=C/C(=O)Nc2ccc(O)cc2)C(C)(C)CCC1 [Fenretinide] = y
